- Tested on: Human immunodeficiency virus 1
- MEASUREMENT_PROTOCOL: Resistance index, ratio of EC50 for rilpivirine resistant HIV1 harboring reverse transcriptase E138K mutant infected in human TZM-bl cells to EC50 for HIV1 NL4-3 infected in human TZM-bl cells
- Format: functional
Known Ratio EC50 of a selection of molecules
Respond with the number and no other words.

Request: Data request, read-out Ratio EC50, for Cc1cc(CCC#N)cc(C)c1Oc1cc(Nc2ccc(C#N)cc2)c(N)cc1C(=O)N(C)C
Result: 1.9

Request: // Ratio EC50 lookup, key: Cc1cc(CCC#N)cc(C)c1Oc1cc(Nc2ccc(C#N)cc2)c(N)cc1C(=O)NC1CC1
Result: 11

Request: May I ask what Ratio EC50 has been recorded for Cc1cc(CCC#N)cc(C)c1Oc1cc(Nc2ccc(C#N)cc2)c(N)cc1CNC1CC1 ?
Result: 48

Request: Reported Ratio EC50, molecule CC(=O)OCc1cc(N)c(Nc2ccc(C#N)cc2)cc1Oc1c(C)cc(CCC#N)cc1C : ____
Result: 12
